viability, T/C: recorded values
system: 885724-159-R-J1-PDC complex spheroid viability; test: Anticancer human tumor 885724-159-R-J1-PDC patient-derived pancreatic adenocarcinoma cell line growth inhibition [POLQ]; conditions: second compound 0.0316 µM; first compound 0.1 µM; active compounds read low

| compound | target.under.test | viability, T/C / % |
| --- | --- | --- |
| COc1cc2cc(C(=O)CCC(=O)O)sc2cc1OC + COC1C(OC(N)=O)C(O)C(Oc2ccc3c(O)c(NC(=O)c4ccc(O)c(CC=C(C)C)c4)c(=O)oc3c2C)OC1(C)C | 885724-159-R-J1-PDC complex spheroid viability | 97.6 |
| CCc1cc2c(N3CCc4c(cc(Cn5ccnc5)cc4-c4cn(C)nc4C(F)(F)F)C3=O)cc(C)nc2c(OC)n1 + COC1C(OC(N)=O)C(O)C(Oc2ccc3c(O)c(NC(=O)c4ccc(O)c(CC=C(C)C)c4)c(=O)oc3c2C)OC1(C)C | 885724-159-R-J1-PDC complex spheroid viability | 79.7 |
| CC(C)n1c(=O)n(C)c2cnc3cc(F)c(-c4ccc(OCCCN5CCCCC5)nc4)cc3c21 + Nc1ccc(C#CCN(C(=O)Cc2ncc(C(F)(F)F)cc2C(F)(F)F)c2ccc(F)cc2)nn1 | 885724-159-R-J1-PDC complex spheroid viability | 103 |
| O=C(c1cc(Cc2n[nH]c(=O)c3ccccc23)ccc1F)N1CCN(C(=O)C2CC2)CC1 + Nc1ccc(C#CCN(C(=O)Cc2ncc(C(F)(F)F)cc2C(F)(F)F)c2ccc(F)cc2)nn1 | 885724-159-R-J1-PDC complex spheroid viability | 97.2 |
| COc1cccc2c1C(=O)c1c(O)c3c(c(O)c1C2=O)CC(O)(C(=O)CO)CC3OC1CC(N)C(O)C(C)O1 (configuration not stated) + COC1C(OC(N)=O)C(O)C(Oc2ccc3c(O)c(NC(=O)c4ccc(O)c(CC=C(C)C)c4)c(=O)oc3c2C)OC1(C)C | 885724-159-R-J1-PDC complex spheroid viability | 91.5 |
| COc1cccc2c1C(=O)c1c(O)c3c(c(O)c1C2=O)CC(O)(C(=O)CO)CC3OC1CC(N)C(O)C(C)O1 (configuration not stated) + Nc1ccc(C#CCN(C(=O)Cc2ncc(C(F)(F)F)cc2C(F)(F)F)c2ccc(F)cc2)nn1 | 885724-159-R-J1-PDC complex spheroid viability | 61 |
| C=CCn1c(=O)c2cnc(Nc3ccc(N4CCN(C)CC4)cc3)nc2n1-c1cccc(C(C)(C)O)n1 + Cc1cccc(N(C)C(=O)C2C(O)CCN2c2nc(C)cc(C(F)(F)F)c2C#N)c1 | 885724-159-R-J1-PDC complex spheroid viability | 72.6 |
| COc1cc2cc(C(=O)CCC(=O)O)sc2cc1OC + Cc1cccc(N(C)C(=O)C2C(O)CCN2c2nc(C)cc(C(F)(F)F)c2C#N)c1 | 885724-159-R-J1-PDC complex spheroid viability | 104 |
| O=c1[nH]cc(F)c(=O)[nH]1 + Nc1ccc(C#CCN(C(=O)Cc2ncc(C(F)(F)F)cc2C(F)(F)F)c2ccc(F)cc2)nn1 | 885724-159-R-J1-PDC complex spheroid viability | 99.5 |
| COc1ccc([C@@H](O)c2cc(-c3ncnc4cc(N5CCOCC5)ccc34)c(F)cc2Cl)nn1 + Cc1cccc(N(C)C(=O)C2C(O)CCN2c2nc(C)cc(C(F)(F)F)c2C#N)c1 | 885724-159-R-J1-PDC complex spheroid viability | 90.2 |
| CCCS(=O)(=O)Nc1ccc(F)c(C(=O)c2c[nH]c3ncc(-c4ccc(Cl)cc4)cc23)c1F + Nc1ccc(C#CCN(C(=O)Cc2ncc(C(F)(F)F)cc2C(F)(F)F)c2ccc(F)cc2)nn1 | 885724-159-R-J1-PDC complex spheroid viability | 95.2 |
| Cn1ncnc1[C@H]1c2n[nH]c(=O)c3cc(F)cc(c23)N[C@@H]1c1ccc(F)cc1 + COC1C(OC(N)=O)C(O)C(Oc2ccc3c(O)c(NC(=O)c4ccc(O)c(CC=C(C)C)c4)c(=O)oc3c2C)OC1(C)C | 885724-159-R-J1-PDC complex spheroid viability | 72.1 |
| CC[C@@]1(O)C(=O)OCc2c1cc1n(c2=O)Cc2cc3c(CN(C)C)c(O)ccc3nc2-1 + COC1C(OC(N)=O)C(O)C(Oc2ccc3c(O)c(NC(=O)c4ccc(O)c(CC=C(C)C)c4)c(=O)oc3c2C)OC1(C)C | 885724-159-R-J1-PDC complex spheroid viability | 51.3 |
| CCc1c2c(nc3ccc(O)cc13)-c1cc3c(c(=O)n1C2)COC(=O)[C@]3(O)CC + Nc1ccc(C#CCN(C(=O)Cc2ncc(C(F)(F)F)cc2C(F)(F)F)c2ccc(F)cc2)nn1 | 885724-159-R-J1-PDC complex spheroid viability | 51.4 |
| C=CC(=O)N1CCN(c2nc(=O)n(-c3c(C)ccnc3C(C)C)c3nc(-c4c(O)cccc4F)c(F)cc23)C(C)C1 (configuration not stated) + Nc1ccc(C#CCN(C(=O)Cc2ncc(C(F)(F)F)cc2C(F)(F)F)c2ccc(F)cc2)nn1 | 885724-159-R-J1-PDC complex spheroid viability | 86 |
| COc1cc2cc(C(=O)CCC(=O)O)sc2cc1OC + Nc1ccc(C#CCN(C(=O)Cc2ncc(C(F)(F)F)cc2C(F)(F)F)c2ccc(F)cc2)nn1 | 885724-159-R-J1-PDC complex spheroid viability | 105 |
| CCc1c2c(nc3ccc(O)cc13)-c1cc3c(c(=O)n1C2)COC(=O)[C@]3(O)CC + COC1C(OC(N)=O)C(O)C(Oc2ccc3c(O)c(NC(=O)c4ccc(O)c(CC=C(C)C)c4)c(=O)oc3c2C)OC1(C)C | 885724-159-R-J1-PDC complex spheroid viability | 47.9 |

---

Tested on: 885724-159-R-J1-PDC complex spheroid viability
Experiment: Anticancer human tumor 885724-159-R-J1-PDC cell line growth inhibition [POLQ];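 note: spheroids exposed to compounds for 7 days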
Details: second compound 10 µM; first compound 0.01 µM; active compounds read low
Method: Multicellular complex tumor spheroid response to Polymerase (POL) inhibitors (novobiocin, ART-558, RP6685) in combination with a variety of drugs and investigational agents in selected tumor cell lines The POL inhibitors (novobiocin, ART-558, and RP6685) were evaluated both individually and in combination with standard of care and investigational anticancer small molecules within a complex spheroid model of solid tumors. . […]
viability, T/C vs 80%: less than gives rule met; not less than gives rule not met.

| molecule | discrete.label |
| --- | --- |
| CCc1c2c(nc3ccc(O)cc13)-c1cc3c(c(=O)n1C2)COC(=O)[C@]3(O)CC + Cc1cccc(N(C)C(=O)C2C(O)CCN2c2nc(C)cc(C(F)(F)F)c2C#N)c1 | rule met |
| C=CCn1c(=O)c2cnc(Nc3ccc(N4CCN(C)CC4)cc3)nc2n1-c1cccc(C(C)(C)O)n1 + Nc1ccc(C#CCN(C(=O)Cc2ncc(C(F)(F)F)cc2C(F)(F)F)c2ccc(F)cc2)nn1 | rule not met |
| COc1cccc(OCCCN)c1-c1cc(Nc2cnc(C#N)cn2)n[nH]1 + Nc1ccc(C#CCN(C(=O)Cc2ncc(C(F)(F)F)cc2C(F)(F)F)c2ccc(F)cc2)nn1 | rule met |
| Cn1ncnc1[C@H]1c2n[nH]c(=O)c3cc(F)cc(c23)N[C@@H]1c1ccc(F)cc1 + Nc1ccc(C#CCN(C(=O)Cc2ncc(C(F)(F)F)cc2C(F)(F)F)c2ccc(F)cc2)nn1 | rule not met |
| CCc1c2c(nc3ccc(O)cc13)-c1cc3c(c(=O)n1C2)COC(=O)[C@]3(O)CC + Nc1ccc(C#CCN(C(=O)Cc2ncc(C(F)(F)F)cc2C(F)(F)F)c2ccc(F)cc2)nn1 | rule met |

---

viability, T/C: recorded values
system: 885724-159-R-J1-PDC complex spheroid viability; assay: Anticancer human tumor 885724-159-R-J1-PDC cell line growth inhibition [POLQ]; settings: second compound 10 µM; first compound 0.316 µM; active compounds read low;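 note: spheroids exposed to compounds for 7 days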
measurement.label: viability, T/C (%)

| compound | value.unit | numeric.result |
| --- | --- | --- |
| CCc1c2c(nc3ccc(O)cc13)-c1cc3c(c(=O)n1C2)COC(=O)[C@]3(O)CC + Nc1ccc(C#CCN(C(=O)Cc2ncc(C(F)(F)F)cc2C(F)(F)F)c2ccc(F)cc2)nn1 | % | 39.3 |
| CC1COCCN1c1cc(-c2ccnn2C)c2ccnc(-c3ccn[nH]3)c2n1 (stereo not drawn) + Nc1ccc(C#CCN(C(=O)Cc2ncc(C(F)(F)F)cc2C(F)(F)F)c2ccc(F)cc2)nn1 | % | 52.4 |
| CC1COCCN1c1cc(C2(O)CC3CCC(C2)O3)c2cnn(-c3ccn[nH]3)c2n1 (stereo not drawn) + COC1C(OC(N)=O)C(O)C(Oc2ccc3c(O)c(NC(=O)c4ccc(O)c(CC=C(C)C)c4)c(=O)oc3c2C)OC1(C)C | % | 40.8 |
